- Read-out: Interferon-gamma inducible Protein 10 (IP10), CXCL10 (gene 3627)
- Protocol Description: BSK_BE3C_IP10: BioMAP Diversity Plus: BE3C Assay for Interferon-gamma inducible Protein 10 (IP10) Biomarker Activity (AID 2283034)
- Condition Summary: primary human bronchial epithelial cells; actives raise or lower the signal
Active and inactive are the calls of the source. How the source made its calls: active means hit-call score of the fitted dose curve at least 0.9, where 1 is the maximum; inactive means score below 0.9.
Hello, when you answer, please use one of the following outcomes: active, inactive

Examples with answers:
| Compound | Group Label |
| --- | --- |
| N#Cc1c(-c2ccc(Cl)cc2)[nH]c(C(F)(F)F)c1Br | active |
| O=C(O)C(F)(OC(F)(F)C(F)(F)C(F)(F)F)C(F)(F)F (stereo not drawn) | inactive |
| O=C(O)C(F)(F)OC(F)(F)C(F)(F)OC(F)(F)C(=O)O | inactive |
| CSC(C)(C)C=NO | inactive |
| c1ccc(OP(Oc2ccccc2)Oc2ccccc2)cc1 | inactive |

Input: Answer briefly: the call reported for `C=CC(=O)OCC(F)(F)C(F)F` in this assay.
Output: inactive

Input: Answer briefly: the call reported for O=P1(N(CCCl)CCCl)NCCCO1 (stereo not drawn) in this assay.
Output: inactive

Input: Answer briefly: the call reported for `Cc1ccc([N+](=O)[O-])cc1C` in this assay.
Output: inactive

Input: Answer briefly: the call reported for FC(F)(F)C(F)(C(F)(F)F)C(F)(F)C(F)(F)CC1CO1 (stereo not drawn) in this assay.
Output: inactive

Input: Answer briefly: the call reported for `ClC(Cl)=C(c1ccc(Cl)cc1)c1ccccc1Cl` in this assay.
Output: active

Input: Answer briefly: the call reported for `O=[N+]([O-])c1ccccc1` in this assay.
Output: inactive

Input: Answer briefly: the call reported for `Nc1ccc2ccccc2c1` in this assay.
Output: inactive

Input: Answer briefly: the call reported for `c1cc2c3c(cccc3c1)CC2` in this assay.
Output: inactive

Input: Answer briefly: the call reported for `Cc1ccc(N)cc1N` in this assay.
Output: inactive

Input: Answer briefly: the call reported for `COP(N)(=S)OC` in this assay.
Output: inactive
